tested on: U-251 glioma cells; assay: Cell growth inhibition, 3 d exposure, cell counting; assay type: cell-based; details: Homo sapiens, 72 h, U-251 (brain)
property: IC50 (µM)
Answers are plain numbers, in µM.

Enter measured IC50, system U-251 glioma cells, for the molecule shown: O=S1(=O)CCN(CN2CCS(=O)(=O)NC2)CN1 [Taurolidine] 20.1

---

system: DU-145 prostate tumor cells; assay: Cell growth inhibition, 3 d exposure, cell counting; format: cell-based, human; details: Homo sapiens, DU-145, 72 h
property: IC50

Give DU-145 prostate tumor cells IC50 for the following compound: O=S1(=O)CCN(CN2CCS(=O)(=O)NC2)CN1 ~10 µM
